Every entry's value here was drawn from patent US20050282743A1.

molecular target: GST-BAI-1 Associated Protein PDZ domain 2 (Mus musculus (Mouse)), Q6RHR9; experiment: G' assay; further: key of the grades not given here
Sequence (Q6RHR9 455-558): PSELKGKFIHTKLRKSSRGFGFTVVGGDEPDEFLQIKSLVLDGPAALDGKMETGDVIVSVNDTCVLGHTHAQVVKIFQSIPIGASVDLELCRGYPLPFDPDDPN
READOUT NAME: Classification

Record summary for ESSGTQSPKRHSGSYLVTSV (modifications not checked) [APC-adenomatous polyposis coli protein] : reported Classification = 1 A450 class

Measured Classification, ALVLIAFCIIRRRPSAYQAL (modifications not checked) [CD68] : 3 A450 class

Classification reading for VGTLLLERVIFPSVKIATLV (modifications not checked) [AdenoE4 typ9] : 5 A450 class

Lab note: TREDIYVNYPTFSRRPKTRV (modifications not checked) [DNAM-1] gave Classification of 5 A450 class
